# target-or-system: CB1 (Homo sapiens (Human), UniProt P21554)
# Sequence (P21554 whole entry): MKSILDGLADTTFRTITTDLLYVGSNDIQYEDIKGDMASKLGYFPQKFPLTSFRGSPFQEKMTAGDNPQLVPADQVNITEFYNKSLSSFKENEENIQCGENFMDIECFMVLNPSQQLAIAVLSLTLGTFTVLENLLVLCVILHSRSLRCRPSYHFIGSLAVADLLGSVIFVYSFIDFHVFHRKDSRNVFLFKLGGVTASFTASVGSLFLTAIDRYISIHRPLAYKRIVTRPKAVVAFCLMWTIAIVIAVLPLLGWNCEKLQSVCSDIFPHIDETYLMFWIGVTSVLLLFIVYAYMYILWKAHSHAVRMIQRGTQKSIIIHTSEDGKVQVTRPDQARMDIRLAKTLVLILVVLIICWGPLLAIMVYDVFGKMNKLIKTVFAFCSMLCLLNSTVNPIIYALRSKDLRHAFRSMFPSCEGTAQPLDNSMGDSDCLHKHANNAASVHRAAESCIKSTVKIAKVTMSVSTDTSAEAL
# protocol-description: CB1 activated Gαq16-coupled intracellular calcium mobilization assay in CHO-K1 cells
# Assay type: cell-based
# conditions: apparent affinity (Ke)
quantity-measured: Ke (nM) at CB1
Report as a plain number; the unit nM is understood.

# count of solved cases: 5
compound=CCCCNC(=O)N1CCC(Nc2ncnc3c2nc(-c2ccccc2Cl)n3-c2ccc(Cl)cc2)CC1 target_or_system="CB1 (Homo sapiens (Human), UniProt P21554)" quantity_measured="Ke (nM) at CB1" test_result=71
compound="CS(=O)(=O)NCC1CCC(CNc2ncnc3c2nc(-c2ccccc2Cl)n3-c2ccc(Cl)cc2)CC1 (stereo not drawn)" target_or_system="CB1 (Homo sapiens (Human), UniProt P21554)" quantity_measured="Ke (nM) at CB1" test_result=201.00
compound="CCCCC(=O)NC1CCN(c2ncnc3c2nc(-c2ccccc2Cl)n3-c2ccc(Cl)cc2)CC1 [drawing 78]" target_or_system="CB1 (Homo sapiens (Human), UniProt P21554)" quantity_measured="Ke (nM) at CB1" test_result=4.9
compound="CCNC(=O)N1CCCC(Nc2ncnc3c2nc(-c2ccccc2Cl)n3-c2ccc(Cl)cc2)C1 (stereo not drawn)" target_or_system="CB1 (Homo sapiens (Human), UniProt P21554)" quantity_measured="Ke (nM) at CB1" test_result=1153
compound=O=S(=O)(NC1CCN(c2ncnc3c2nc(-c2ccccc2Cl)n3-c2ccc(Cl)cc2)CC1)C(F)(F)F target_or_system="CB1 (Homo sapiens (Human), UniProt P21554)" quantity_measured="Ke (nM) at CB1" test_result=1.05

Task item: Form field: reported Ke (nM) at CB1 of `O=C(CC1CCCC1)NC1CCN(c2ncnc3c2nc(-c2ccccc2Cl)n3-c2ccc(Cl)cc2)CC1`
Reply: 2.9

Task item: Same lookup for `CC(C)(C)NC(=O)C1(c2ccccc2)CCN(c2ncnc3c2nc(-c2ccccc2Cl)n3-c2ccc(Cl)cc2)CC1` , please.
Reply: 2.2

Task item: Same lookup for CCOC(=O)NC1CCN(c2ncnc3c2nc(-c2ccccc2Cl)n3-c2ccc(Cl)cc2)CC1 [drawing 62] , please.
Reply: 2.3

Task item: Same lookup for `NC1CCN(c2ncnc3c2nc(-c2ccccc2Cl)n3-c2ccc(Cl)cc2)CC1` , please.
Reply: 316

Task item: Same lookup for `CCNC(=O)NC1CCN(c2ncnc3c2nc(-c2ccccc2Cl)n3-c2ccc(Cl)cc2)CC1` , please.
Reply: 149

###

# protocol-description: Brain penetration / plasma and brain levels after oral dosing in SD rats
# Type: in vivo, Sprague-Dawley (SD) rats
# conditions: Sprague-Dawley, rat, brain and plasma, oral 10 mg/kg, 2 hours post dose
quantity-measured: Kp at 2 h

compound="CCOC(=O)NC1CCN(c2ncnc3c2nc(-c2ccccc2Cl)n3-c2ccc(Cl)cc2)CC1 [drawing 84]" quantity_measured="Kp at 2 h" test_result=0.14

Task item: Form field: reported Kp at 2 h of CCCCC(=O)NC1CCN(c2ncnc3c2nc(-c2ccccc2Cl)n3-c2ccc(Cl)cc2)CC1 [drawing 85]
Reply: 0.03

###

# target-or-system: CB1 (Homo sapiens (Human))
# protocol-description: CB1 activated Gαq16-coupled intracellular calcium mobilization assay in CHO-K1 cells
# Format: cell-based
# conditions: apparent affinity (Ke)
quantity-measured: Ke (nM) at CB1
Report as a plain number; the unit nM is understood.

# count of solved cases: 5
compound=CC(C)(C)OC(=O)N1CCC(Nc2ncnc3c2nc(-c2ccccc2Cl)n3-c2ccc(Cl)cc2)CC1 target_or_system="CB1 (Homo sapiens (Human))" reading_unit=nM test_result=92
compound=CCOC(=O)CNC(=O)NC1(c2ccccc2)CCN(c2ncnc3c2nc(-c2ccccc2Cl)n3-c2ccc(Cl)cc2)CC1 target_or_system="CB1 (Homo sapiens (Human))" reading_unit=nM test_result=171
compound=CC(=O)NC1CCN(c2ncnc3c2nc(-c2ccccc2Cl)n3-c2ccc(Cl)cc2)CC1 target_or_system="CB1 (Homo sapiens (Human))" reading_unit=nM test_result=631
compound=CCCCNC(=O)NC1(c2ccccc2)CCN(c2ncnc3c2nc(-c2ccccc2Cl)n3-c2ccc(Cl)cc2)CC1 target_or_system="CB1 (Homo sapiens (Human))" reading_unit=nM test_result=62
compound=CC(C)CCC(=O)NC1CCN(c2ncnc3c2nc(-c2ccccc2Cl)n3-c2ccc(Cl)cc2)CC1 target_or_system="CB1 (Homo sapiens (Human))" reading_unit=nM test_result=7.4

Task item: Form field: reported Ke (nM) at CB1 of NS(=O)(=O)NCC1CCC(CNc2ncnc3c2nc(-c2ccccc2Cl)n3-c2ccc(Cl)cc2)CC1 (centres unmarked)
Reply: 549.0

Task item: Same lookup for `O=C(NC1CCN(c2ncnc3c2nc(-c2ccccc2Cl)n3-c2ccc(Cl)cc2)CC1)C(F)(F)F` , please.
Reply: 3.19

Task item: Same lookup for `CCCNC(=O)N1CCC(Nc2ncnc3c2nc(-c2ccccc2Cl)n3-c2ccc(Cl)cc2)CC1` , please.
Reply: 1964

Task item: Same lookup for `CC(C)NC(=O)NC1(c2ccccc2)CCN(c2ncnc3c2nc(-c2ccccc2Cl)n3-c2ccc(Cl)cc2)CC1` , please.
Reply: 46

Task item: Same lookup for `CC(=O)N1CCC(Nc2ncnc3c2nc(-c2ccccc2Cl)n3-c2ccc(Cl)cc2)CC1` , please.
Reply: 19595

Task item: Same lookup for `COC(=O)NC1CCN(c2ncnc3c2nc(-c2ccccc2Cl)n3-c2ccc(Cl)cc2)CC1` , please.
Reply: 17
